Biological target: hGLP-1R (Homo sapiens, UniProt P43220)
Sequence (P43220 24-463): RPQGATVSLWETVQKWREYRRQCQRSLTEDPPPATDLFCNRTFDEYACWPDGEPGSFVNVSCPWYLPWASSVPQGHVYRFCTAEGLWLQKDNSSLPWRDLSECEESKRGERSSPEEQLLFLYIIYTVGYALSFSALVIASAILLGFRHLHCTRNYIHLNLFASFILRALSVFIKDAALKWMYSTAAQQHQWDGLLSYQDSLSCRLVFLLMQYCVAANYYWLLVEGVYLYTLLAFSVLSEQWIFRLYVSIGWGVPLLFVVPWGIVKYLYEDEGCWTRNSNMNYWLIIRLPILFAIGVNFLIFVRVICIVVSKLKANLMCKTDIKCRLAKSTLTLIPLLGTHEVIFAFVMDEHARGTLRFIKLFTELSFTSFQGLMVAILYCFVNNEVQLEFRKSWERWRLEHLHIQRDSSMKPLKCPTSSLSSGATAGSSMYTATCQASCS
Test: cell-based or functional assay
Please enter 1.0 where Relative cAMP EC50 is greater than or equal to 0.3 nM, and 0.0 where it is lower.

YXQGTFTSDFSKXLDKKAQXAFIEYLLEGGPSSGAPPPSGS (synthetic construct; SITE 2: note = 2-Aminoisobutyric Acid; SITE 13: note = alpha-methyl-leucine; SITE 17: note = Lysine is chemically modified through conjugation of the epsilon-amino group of the Lysine side chain with (2-[2-(2-Amino-ethoxy)-ethoxy]-acetyl)-(gamma-Glu)-CO-(CH2) 16-CO2H; SITE 20: n) [Example 141] | 1.0

Here is the next item to consider.
Qu. Confirm if Relative cAMP EC50 reported for the binder YXQGTFTSDXSQXLDXKAQXQFIEXLLAGGPSSGAPPPSGSEEE (not fully specified; Lys acylated γGlu-C18 diacid; non-natural residues; C-terminal amide; synthetic construct; SITE 2: note = 2-Aminoisobutyric Acid; SITE 10: note = 3-(4-Pyridyl)-L-alanine; SITE 13: note = alpha-methyl-leucine; SITE 16: note = L-ornithine; SITE 17: note = Lysine is chemically modified through conjugation of the epsilon-amino group of the Lysine side chain with D-Glutami) [Example 1084] is 0.3 nM or above.
Ans. 1.0
